Biological target: GalP (Escherichia coli, UniProt P0AEP1)
Sequence (P0AEP1 whole entry): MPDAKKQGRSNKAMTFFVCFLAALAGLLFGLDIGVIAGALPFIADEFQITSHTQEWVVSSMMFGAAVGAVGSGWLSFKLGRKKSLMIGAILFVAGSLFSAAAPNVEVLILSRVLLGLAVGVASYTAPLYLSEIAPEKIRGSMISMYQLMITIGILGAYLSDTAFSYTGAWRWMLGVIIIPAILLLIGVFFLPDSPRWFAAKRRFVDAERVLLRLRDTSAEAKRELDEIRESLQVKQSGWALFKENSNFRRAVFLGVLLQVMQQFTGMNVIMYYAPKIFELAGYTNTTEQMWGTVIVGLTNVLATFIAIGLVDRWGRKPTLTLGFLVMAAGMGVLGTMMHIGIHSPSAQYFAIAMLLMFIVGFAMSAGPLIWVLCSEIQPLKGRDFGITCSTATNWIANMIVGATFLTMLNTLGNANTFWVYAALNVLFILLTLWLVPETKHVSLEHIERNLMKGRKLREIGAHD

| compound | Kd |
| --- | --- |
| C=C[C@@]1(C)CC(=O)[C@]2(O)[C@@]3(C)[C@@H](O)CCC(C)(C)[C@@H]3[C@H](O)[C@H](OC(C)=O)[C@@]2(C)O1 [forskolin] | 63 µM |

###

Molecular target: Mhp1 (Microbacterium maritypicum)
Sequence (D6R8X8 1-489): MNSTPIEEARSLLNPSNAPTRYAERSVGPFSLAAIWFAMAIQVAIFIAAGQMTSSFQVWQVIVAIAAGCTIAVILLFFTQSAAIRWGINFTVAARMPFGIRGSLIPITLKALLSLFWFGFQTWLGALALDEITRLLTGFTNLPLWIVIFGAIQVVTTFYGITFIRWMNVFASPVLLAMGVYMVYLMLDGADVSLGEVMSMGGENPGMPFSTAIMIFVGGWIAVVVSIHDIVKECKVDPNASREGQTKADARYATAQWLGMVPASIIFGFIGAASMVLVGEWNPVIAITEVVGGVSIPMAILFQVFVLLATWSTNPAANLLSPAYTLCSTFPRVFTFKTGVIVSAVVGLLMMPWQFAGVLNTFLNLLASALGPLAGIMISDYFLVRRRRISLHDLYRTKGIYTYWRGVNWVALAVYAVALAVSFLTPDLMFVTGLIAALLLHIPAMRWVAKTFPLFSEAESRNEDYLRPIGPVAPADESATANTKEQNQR
quantity-name: Kd (µM)

| smiles-data | experimental-target | quantity-name | recorded-number |
| --- | --- | --- | --- |
| O=C1NC(=O)[C@H](Cc2ccccc2)N1 | Mhp1 (Microbacterium maritypicum) | Kd | 17.6 |
